- experimental_target: T1, mouse 4-1BB extracellular domain, His tag (mouse, UniProt P20334 24-187)
- T1 construct: extracellular domain; also called mPro1.ECD.His; not shown: His tag
- T1 sequence (looked up): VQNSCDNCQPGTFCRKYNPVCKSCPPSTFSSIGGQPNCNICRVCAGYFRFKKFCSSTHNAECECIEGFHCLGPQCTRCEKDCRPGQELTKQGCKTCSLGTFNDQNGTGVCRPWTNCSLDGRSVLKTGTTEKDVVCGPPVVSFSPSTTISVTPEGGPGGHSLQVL
- protocol_details: SPR, Biacore T200; antibody captured on Protein G chip, mouse 4-1BB ECD.His as analyte
measurement_kind: kon (M⁻¹ s⁻¹)
Record the value in M⁻¹ s⁻¹, omitting the unit from your answer.

// recorded kon for 2.27.16-u1-1-hIgG4L (antibody, V domains shown) VH: QEQLQESGPGLVKPSQTLSLTCTVSGGSINSQGYYWSWIRQHPGKGLEWIGYIYDSGSAYYNPSLERRVAISLDTSKNQFSLNLNSVTVADTAVYYCARIVAAGRIDPWGQGTLVTVSS VL: SYVLTQPPSVSVAPGQTARMTCGGDNIGIKIVHWYQQKAGQAPVLVVYDDNDRPSGIPDRFSGSNSGNTATLTISRVAAGDEADYYCQVWDRRSDHVVFGGGTKLTVL : 217000

// recorded kon for 2.19.8-u1-3-hIgG4L (antibody, V domains shown) VH: QVQLVESGGGLVKPGGSLRLSCAASGFTFSDYFMSWIRQAPGKGLEWVSYISNAGSSKYYADSVKGRFTISRDNAKNSLYLQMNSLRAEDTAVYYCVRDPYSGSYSGWFDPWGQGTLVTVSS VL: SYDLTQPPSVSVSPGQTASITCSGDDLGDKYTSWYQQKPGQSPVLVVYQDHKRPSGIPERFSGSNSGNTATLTISGTQAMDEADYYCQAWDKGIVVFGGGTKLTVL : 1.17e+07

// recorded kon for 2.27.16-u1-1-hIgG1L (antibody, V domains shown, Fully human antibody) VH: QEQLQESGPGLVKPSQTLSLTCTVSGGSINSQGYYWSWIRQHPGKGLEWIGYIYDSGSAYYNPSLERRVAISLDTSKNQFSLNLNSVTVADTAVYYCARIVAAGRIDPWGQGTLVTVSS VL: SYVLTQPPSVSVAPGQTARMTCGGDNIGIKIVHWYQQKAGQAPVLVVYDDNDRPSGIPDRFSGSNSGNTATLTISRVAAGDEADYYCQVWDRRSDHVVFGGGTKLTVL : 158000

// recorded kon for 2.19.8-u1-3-hIgG1L (antibody, V domains shown, Fully human antibody) VH: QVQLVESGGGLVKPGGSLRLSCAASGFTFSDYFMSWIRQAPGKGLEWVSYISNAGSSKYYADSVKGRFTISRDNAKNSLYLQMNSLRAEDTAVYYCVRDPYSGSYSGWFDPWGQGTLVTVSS VL: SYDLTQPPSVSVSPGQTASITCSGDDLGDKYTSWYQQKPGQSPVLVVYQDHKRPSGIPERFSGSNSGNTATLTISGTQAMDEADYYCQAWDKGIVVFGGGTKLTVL : 3.73e+07
